Test system: human red blood cells (hRBC)
Assay type: cell-based
Protocol Conditions: red cells of human, 1 h
Peptide text beside a SMILES is read from it.
Measurement Kind: Hemolysis at 100 μg/mL (%)
Give bare numbers, in %.

CC[C@H](C)[C@@H]1NC(=O)[C@H](CCCNC(=N)N)NC(=O)[C@H]([C@@H](C)CC)NC(=O)[C@H](CCCNC(=N)N)NC(=O)[C@H](Cc2c[nH]c3ccccc23)NC(=O)[C@@H]2CCCN2C(=O)[C@H]2CCCN2C(=O)[C@H](C)NC(=O)[C@H](CCC(N)=O)NC(=O)[C@H](CC(C)C)NC(=O)[C@H](CCCNC(=N)N)NC(=O)[C@H](CCC(N)=O)NC(=O)[C@H](CC(N)=O)NC(=O)[C@H](CCN)NC1=O [Example 10] (HELM PEPTIDE1{W.R.I.R.I.[Dab].N.Q.R.L.Q.A.[dP].P}$PEPTIDE1,PEPTIDE1,1:R1-14:R2$$$V2.0) | 0.4

I have this compound here, CC[C@H](C)[C@@H]1NC(=O)[C@H](CCCNC(=N)N)NC(=O)[C@H](Cc2c[nH]c3ccccc23)NC(=O)[C@@H]2CCCN2C(=O)[C@H]2CCCN2C(=O)[C@H](C)NC(=O)[C@H](CCC(N)=O)NC(=O)[C@H](CC(C)C)NC(=O)[C@H](CCCNC(=N)N)NC(=O)[C@H](CCC(N)=O)NC(=O)[C@H](CC(N)=O)NC(=O)[C@@H](CCCNC(=N)N)NC(=O)[C@H]([C@@H](C)CC)NC(=O)[C@H](CCN)NC1=O [Example 7] (HELM PEPTIDE1{W.R.I.[Dab].I.[dR].N.Q.R.L.Q.A.[dP].P}$PEPTIDE1,PEPTIDE1,1:R1-14:R2$$$V2.0) , and I need its recorded Hemolysis at 100 μg/mL.
0.0
